Cited source for all entries: patent US8148391B2

Molecular target: baculovirus-expressed ALK (Homo sapiens, UniProt Q9UM73)
Construct: host or cells: baculovirus expression system
Sequence (Q9UM73 19-1620): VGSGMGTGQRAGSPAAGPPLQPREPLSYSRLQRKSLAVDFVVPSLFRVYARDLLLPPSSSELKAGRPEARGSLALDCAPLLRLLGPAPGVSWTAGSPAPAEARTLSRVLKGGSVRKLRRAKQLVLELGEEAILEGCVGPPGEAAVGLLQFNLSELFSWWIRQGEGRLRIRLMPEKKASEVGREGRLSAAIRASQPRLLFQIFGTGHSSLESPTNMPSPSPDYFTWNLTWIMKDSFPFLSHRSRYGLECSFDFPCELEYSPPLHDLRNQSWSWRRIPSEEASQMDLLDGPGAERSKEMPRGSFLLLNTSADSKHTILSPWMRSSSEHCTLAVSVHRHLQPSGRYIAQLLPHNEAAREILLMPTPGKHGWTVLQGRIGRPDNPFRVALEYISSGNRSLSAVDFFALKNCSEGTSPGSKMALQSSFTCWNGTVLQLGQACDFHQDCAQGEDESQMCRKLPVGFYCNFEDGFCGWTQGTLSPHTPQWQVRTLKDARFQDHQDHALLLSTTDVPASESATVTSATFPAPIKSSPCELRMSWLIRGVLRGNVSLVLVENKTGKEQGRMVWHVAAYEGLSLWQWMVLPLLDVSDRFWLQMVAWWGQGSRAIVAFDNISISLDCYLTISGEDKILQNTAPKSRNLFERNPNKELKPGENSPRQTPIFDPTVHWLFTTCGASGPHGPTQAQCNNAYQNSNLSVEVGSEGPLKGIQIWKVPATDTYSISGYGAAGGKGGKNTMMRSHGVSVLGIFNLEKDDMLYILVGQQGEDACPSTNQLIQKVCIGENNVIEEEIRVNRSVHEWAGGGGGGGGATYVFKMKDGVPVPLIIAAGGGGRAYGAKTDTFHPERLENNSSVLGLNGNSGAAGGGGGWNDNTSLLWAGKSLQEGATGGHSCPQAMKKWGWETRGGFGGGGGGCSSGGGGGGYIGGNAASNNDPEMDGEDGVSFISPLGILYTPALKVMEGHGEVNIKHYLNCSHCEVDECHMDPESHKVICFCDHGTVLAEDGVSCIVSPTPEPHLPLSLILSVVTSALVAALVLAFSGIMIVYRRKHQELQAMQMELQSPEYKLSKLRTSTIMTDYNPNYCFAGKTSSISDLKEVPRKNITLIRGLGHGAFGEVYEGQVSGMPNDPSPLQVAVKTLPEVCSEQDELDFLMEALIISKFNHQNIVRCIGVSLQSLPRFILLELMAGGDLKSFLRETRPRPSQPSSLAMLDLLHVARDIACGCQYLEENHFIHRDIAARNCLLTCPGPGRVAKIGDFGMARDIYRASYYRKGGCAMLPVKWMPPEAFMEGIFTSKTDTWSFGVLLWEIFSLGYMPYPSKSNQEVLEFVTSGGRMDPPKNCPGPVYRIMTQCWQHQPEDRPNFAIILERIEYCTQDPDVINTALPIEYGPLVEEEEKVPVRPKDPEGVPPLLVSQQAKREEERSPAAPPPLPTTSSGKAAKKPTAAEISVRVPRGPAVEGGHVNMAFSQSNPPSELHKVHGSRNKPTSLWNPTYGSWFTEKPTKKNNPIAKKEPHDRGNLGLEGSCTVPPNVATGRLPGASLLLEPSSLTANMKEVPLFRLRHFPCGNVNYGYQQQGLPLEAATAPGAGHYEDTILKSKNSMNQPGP
Assay: ALK Kinase Assay (ELISA-type, time-resolved fluorescence)
Assay type: biochemical
Conditions: ALK kinase inhibition, 1 μM ATP (Km level); read-out: ALK Activity
VALUE KIND: IC50

[[record]]
mol = "CCN1CCc2ccc(Nc3ncc(Cl)c(NCCCC(=O)NC)n3)cc2CC1"
tgt = "baculovirus-expressed ALK (Homo sapiens, UniProt Q9UM73)"
value_measured = "1 to 10 µM"

[[record]]
mol = "CNC(=O)c1cccc(C)c1Nc1nc(Nc2ccc3c(c2)C(=O)NCCC3)ncc1Cl"
tgt = "baculovirus-expressed ALK (Homo sapiens, UniProt Q9UM73)"
value_measured = "> 10 µM"

[[record]]
mol = "COCCN1CCc2ccc(Nc3ncc(Cl)c(Nc4ccccc4-c4ncc[nH]4)n3)cc2CC1"
tgt = "baculovirus-expressed ALK (Homo sapiens, UniProt Q9UM73)"
value_measured = "< 0.1 µM"


Go through the list and state IC50 for each entry.
1. COCCN1CCc2ccc(Nc3ncc(Cl)c(N[C@@H]4CCCC[C@H]4NC(=O)C(F)(F)F)n3)cc2CC1
2. CCN1CCc2cc(Nc3ncc(Cl)c(Nc4ccccc4C(=O)NC)n3)c(OC)c(N)c2CC1
3. CN1CCN(C)c2cccc(Nc3ncc(Cl)c(N[C@@H]4CCCC[C@H]4NS(C)(=O)=O)n3)c2C1=O

Result string:
1: < 0.1 µM; 2: < 0.1 µM; 3: 0.1 to 1 µM

Need IC50 for each of these compounds.
1. CCNC(=O)c1ccccc1Nc1nc(Nc2cc3c(cc2OC)CC(=O)NCC3)ncc1Cl
2. COc1cc(N2CCOCC2)ccc1Nc1nc(Nc2ccc3c(c2)CCN(S(C)(=O)=O)CC3)ncc1Cl

Result string:
1. < 0.1 µM
2. < 0.1 µM

* * *

Molecular target: c-Met (cytoplasmic domain) (Homo sapiens)
Construct: 10 ng/mL c-Met (cytoplasmic domain, Invitrogen Corporation #PV3143); purchased Invitrogen Corporation PV3143
Sequence (P08581 956-1390 limits assumed): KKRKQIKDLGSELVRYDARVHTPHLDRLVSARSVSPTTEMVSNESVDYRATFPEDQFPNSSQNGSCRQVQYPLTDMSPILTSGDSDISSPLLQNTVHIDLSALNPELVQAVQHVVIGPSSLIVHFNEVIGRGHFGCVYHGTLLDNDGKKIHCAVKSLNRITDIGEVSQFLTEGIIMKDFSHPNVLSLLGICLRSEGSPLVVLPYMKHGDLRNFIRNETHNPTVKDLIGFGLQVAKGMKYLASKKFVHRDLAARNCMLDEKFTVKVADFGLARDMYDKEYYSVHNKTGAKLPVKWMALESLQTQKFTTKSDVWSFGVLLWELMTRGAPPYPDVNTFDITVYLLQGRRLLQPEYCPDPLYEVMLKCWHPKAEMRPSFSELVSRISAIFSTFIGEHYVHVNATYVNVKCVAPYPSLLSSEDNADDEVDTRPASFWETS
Assay: c-Met Kinase Assay (same methods as for ALK, with modifications)
Assay type: biochemical
Details: 1 μM ATP (Km level); read-out: cMet Activity (c-Met Kinase Inhibition, IC50)
Consider the following compounds; for each one, report its IC50.

[[record]]
compound = "COCC(COC)N1CCc2cc(Nc3ncc(Cl)c(N[C@@H]4CCCC[C@H]4NS(C)(=O)=O)n3)c(OC)cc2CC1"
value_measured = "> 10 µM"

[[record]]
compound = "COc1cc2c(cc1Nc1ncc(Cl)c(Nc3ccc(N4CCN(C)CC4)cc3OC)n1)CCNC(=O)C2"
value_measured = "> 10 µM"

[[record]]
compound = "C=CCN1CCNC(=O)c2cccc(Nc3ncc(Cl)c(Nc4ccccc4C(=O)NC)n3)c21"
value_measured = "> 10 µM"

[[record]]
compound = "COCC(COC)N1CCc2cc(Nc3ncc(Cl)c(N[C@H]4[C@@H](C(N)=O)[C@@H]5C=C[C@H]4C5)n3)c(OC)cc2CC1"
value_measured = "> 10 µM"

[[record]]
compound = "CC1(C)CCC(=O)Nc2ccc(Nc3ncc(Cl)c(Nc4cccc(-c5cccnc5)c4)n3)cc21"
value_measured = "1 to 10 µM"

[[record]]
compound = "NC(=O)[C@@H]1[C@H]2CC[C@H](C2)[C@@H]1Nc1nc(Nc2ccc3c(c2)CCC(NCC(F)(F)F)CC3)ncc1Cl (stereo partly shown)"
value_measured = "0.1 to 1 µM"


From here, focus on the item given below.
Query string: Quote IC50 with test system c-Met (cytoplasmic domain) (Homo sapiens) for CCN(CCO)Cc1cc(Nc2nc(Nc3cc4c(cc3OC)CCN(CC(=O)N(C)C)CC4)ncc2Cl)ccc1F
Result string: > 10 µM
